- system_tested: human IAP (Homo sapiens, UniProt P09923)
- Construct: conditioned serum-free medium used as enzyme stock
- Sequence (P09923 20-503 limits assumed): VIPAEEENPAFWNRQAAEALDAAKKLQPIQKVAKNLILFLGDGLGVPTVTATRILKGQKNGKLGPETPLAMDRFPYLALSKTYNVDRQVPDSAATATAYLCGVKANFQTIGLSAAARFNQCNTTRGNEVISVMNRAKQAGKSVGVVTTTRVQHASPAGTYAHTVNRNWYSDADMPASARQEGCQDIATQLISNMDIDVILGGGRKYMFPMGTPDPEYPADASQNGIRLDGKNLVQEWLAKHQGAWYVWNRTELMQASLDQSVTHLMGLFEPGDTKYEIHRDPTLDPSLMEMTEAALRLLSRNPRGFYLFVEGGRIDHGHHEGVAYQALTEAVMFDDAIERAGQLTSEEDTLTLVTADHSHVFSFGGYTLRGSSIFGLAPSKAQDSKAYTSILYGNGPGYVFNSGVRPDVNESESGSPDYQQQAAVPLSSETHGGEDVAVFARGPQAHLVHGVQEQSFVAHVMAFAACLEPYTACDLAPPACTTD
- protocol_details: IAP assay using CDP-Star (chemiluminescent, dose response)
- measurement_conditions: IAP modulators, Tables A-H; negative Hill coefficient = activator, positive = inhibitor
Listing: IC50 of selected compounds
Write down the numeric answer in µM and omit the unit.

Check out these entries, answers already filled in.
CC(OC(=O)c1cc(-c2ccc(Br)cc2)[nH]n1)C(=O)NC(C)(C)C (centres unmarked) [Compound A13]    93.4
O=C1C2CC=CCC2C(=O)N1c1nc(Cc2ccccc2)n[nH]1 (centres unmarked) [Compound F8]    0.503
O=C1C2CCCCC2C(=O)N1c1ncn[nH]1 (centres unmarked) [Compound F1]    13.8
O=C1C2CC=CCC2C(=O)N1c1ncn[nH]1 (centres unmarked) [Compound F4]    34.5
O=C(O)c1cc(-c2ccc(O)cc2)n[nH]1 [Compound B1]    79.2

Okay, now this compound:
Fill in: IC50 of COC(=O)c1cc(-c2ccc(C)cc2C)n[nH]1 [Compound B13] is ___ 66.1

###

- system_tested: human IAP (Homo sapiens)
- Construct: made in house; host or cells: COS-1 cells, transient expression from pCMV-Script; conditioned serum-free medium used as enzyme stock
- protocol_details: IAP assay using CDP-Star (chemiluminescent, dose response)
- Assay type: biochemical
- measurement_conditions: IAP modulators, Tables A-H; negative = activator, positive = inhibitor
readout_name: n (Hill coefficient)
Reply with just the number.

COc1ccc(-c2n[nH]c3oc(=O)cc(C)c23)cc1 [Compound E4]    −1.49
Cc1cc(O)oc2nnc(-c3ccccc3)c1-2 [Compound E6]    −5
COC(=O)c1cc(-c2ccc(Cl)cc2Cl)n[nH]1 [Compound B12]    −1.3

Return n (Hill coefficient) measured with human IAP (Homo sapiens) given this compound: O=C1C2CC=CCC2C(=O)N1c1nc(CCc2ccccc2)n[nH]1 (centres unmarked) [Compound F9] 0.616

Return n (Hill coefficient) measured with human IAP (Homo sapiens) given this compound: O=C1C2CCCCC2C(=O)N1c1nc(CCc2ccccc2)n[nH]1 (centres unmarked) [Compound F3] 0.694

###

Listing: n (Hill coefficient) of selected compounds
- system_tested: human IAP (Homo sapiens)
- Construct: made in house; host or cells: COS-1 cells, transient expression from pCMV-Script; conditioned serum-free medium used as enzyme stock
- protocol_details: IAP assay using CDP-Star (chemiluminescent, dose response)
- Format: biochemical
- measurement_conditions: IAP modulators, Tables A-H; negative = activator, positive = inhibitor
Reply with just the number.

Check out these entries, answers already filled in.
CC(=O)Nc1nnc(SCc2ccc(Br)cc2)[nH]1    −0.563
O=C(O)c1[nH]nc2c1COc1ccccc1-2 [Compound E1]    0.533
O=C1C2CCCCC2C(=O)N1c1ncn[nH]1 (stereo not shown)    −2.03
O=C(O)c1cc(-c2ccc(O)cc2)n[nH]1    1.1
CC(C)(C)C(=O)COC(=O)c1cc(-c2ccc(Br)cc2)[nH]n1    −1.09
O=C1C2CC=CCC2C(=O)N1c1nc(Cc2ccccc2)n[nH]1 (stereo not shown)    1.28

Okay, now this compound:
Return n (Hill coefficient) measured with human IAP (Homo sapiens) given this compound: O=C1C2CC=CCC2C(=O)N1c1nc(-c2ccco2)n[nH]1 (stereo not shown) 0.894

###

- system_tested: human IAP (Homo sapiens)
- Construct: made in house; host or cells: COS-1 cells, transient expression from pCMV-Script; conditioned serum-free medium used as enzyme stock
- protocol_details: IAP assay using CDP-Star (chemiluminescent, dose response)
- Type: biochemical
- measurement_conditions: IAP modulators, Tables A-H; negative = activator, positive = inhibitor
Listing: n (Hill coefficient) of selected molecules
Reply with just the number.

COc1ccc(Br)cc1S(=O)(=O)Nc1cnc2ccccc2c1    0.716
CC(OC(=O)c1cc(-c2ccc(Br)cc2)[nH]n1)C(=O)NC(C)(C)C (stereo not drawn)    −1
O=C1C2CCCCC2C(=O)N1c1nc(Cc2ccccc2)n[nH]1 (stereo not drawn)    1.01
O=C1C2CC=CCC2C(=O)N1c1nc(-c2ccccc2)n[nH]1 (stereo not drawn)    0.8895
O=C(O)c1cc(-c2ccccc2O)n[nH]1    −1.92

Fill in: n (Hill coefficient) of `CCOC(=O)c1cc(-c2cccc(C(F)(F)F)c2)[nH]n1` is ___ −1.45

Fill in: n (Hill coefficient) of `O=C1c2ccccc2C(=O)N1c1nc(Cc2ccccc2)n[nH]1` is ___ 0.5445

Fill in: n (Hill coefficient) of `Cn1ccnc1Cc1ncnc(Nc2ccccc2)n1` is ___ −1.32

Fill in: n (Hill coefficient) of `COc1ccc(-c2nnc3oc(O)cc(C)c2-3)cc1` is ___ −1.89

Fill in: n (Hill coefficient) of O=C1C2CC=CCC2C(=O)N1c1nc(-c2cccnc2)n[nH]1 (stereo not drawn) is ___ 0.927

Fill in: n (Hill coefficient) of `COC(=O)c1cc(-c2ccc(C)cc2C)n[nH]1` is ___ −3.035

Fill in: n (Hill coefficient) of O=C1C2C3C=CC(C3)C2C(=O)N1c1nc(CCc2ccccc2)n[nH]1 (stereo not drawn) is ___ 0.871

Fill in: n (Hill coefficient) of O=C1C2CC=CCC2C(=O)N1c1ncn[nH]1 (stereo not drawn) is ___ −1.61

Fill in: n (Hill coefficient) of `O=C(O)c1cc(-c2ccccc2Cl)[nH]n1` is ___ 0.9625

Fill in: n (Hill coefficient) of `CC(C)c1ccc(-c2cc(C(=O)O)[nH]n2)cc1` is ___ −4.38
